- System: HOP-62
- EXPERIMENTAL PROTOCOL: NCI tumour cell line growth inhibition, 48 h
Calls of active or inactive are those of the source. No stated cut-off is given here; in the data, active = GI50 up to about 1.1 µM and inactive = higher.
READOUT LABEL: GI50

Exam item: Dear colleague, I am looking for the recorded GI50 of the following compound: Oc1ccc2ccccc2c1/N=N/c1cccc2ccccc12
Marked response: 48.5 µM (inactive)

Exam item: Also need N#Cc1cc([N+](=O)[O-])ccc1NC(=O)C(F)(F)F , thanks.
Marked response: > 100 µM (inactive)

Exam item: Also need COc1ccccc1-c1cc(=O)c2ccc(OC)c(OC)c2o1 , thanks.
Marked response: > 100 µM (inactive)

Exam item: Also need Cc1ccc(-n2c(C)n[nH]c2=O)cc1 , thanks.
Marked response: > 100 µM (inactive)

Exam item: Also need CCCCCCCCCCCCCCCCP(=O)(O)OP(=O)(O)OCC1OC(n2cnc3c(N)ncnc32)C(O)C1O (stereo not given) , thanks.
Marked response: 19.5 µM (inactive)

---

- Tested on: SK-MEL-28
- EXPERIMENTAL PROTOCOL: NCI tumour cell line growth inhibition, 48 h
Active and inactive are the calls of the source. Cut-off read from the data, not from the text of the source: active = GI50 up to about 1.1 µM and inactive = higher.
Return exactly one item of active, inactive

Exam item: Dear all, I need the recorded test outcome for Cc1ccnc(NC(NC(=O)c2ccccc2)(C(F)(F)F)C(F)(F)F)c1 , thank you.
Marked response: inactive

Exam item: Also need CC(=O)N(C(=O)CC(=O)N/N=C\c1ccc(Br)c(N(CCC#N)CCC#N)c1)c1ccc(Cl)cc1 , thanks.
Marked response: inactive

Exam item: Also need CC(=O)Nc1cc2cc(NS(=O)(=O)c3cc(C(F)(F)F)cc(C(F)(F)F)c3)ccc2oc1=O , thanks.
Marked response: inactive

Exam item: Also need COC1=CC(=O)N(C)C(O)C1(C#N)OC1OC(CO)C(O)C(O)C1O (configuration not stated) , thanks.
Marked response: inactive

Exam item: Also need CN(c1ccc(Cl)cc1)S(=O)(=O)c1ccccc1 , thanks.
Marked response: inactive

Exam item: Also need COC(C)(C)[C@H](O)C(O)CC(C)[C@@H]1CCC23CC12CCC1[C@@]2(C)CCC(OC(C)=O)C(C)(C)C2CC(OC2OC(COC(C)=O)C(O)C(O)C2O)[C@]13C (some centres not stated) , thanks.
Marked response: inactive

Exam item: Also need CN(C)CCN1Nc2c3ccccc3nc3c(C(=O)NCCCN(C)CCCNC(=O)c4ccc5c6c(c7ccccc7nc46)NN5CCN(C)C)ccc1c23 , thanks.
Marked response: active

Exam item: Also need C=C1C[C@@H]2C[C@@H](C)CC(O)[C@]2(CCCN)C1O (some centres not stated) , thanks.
Marked response: inactive

Exam item: Also need CC(=O)NC(CCCCNC(=O)NCCCl)C(=O)NCc1ccccc1 (configuration not stated) , thanks.
Marked response: inactive

Exam item: Also need COc1ccc(C(=O)Nc2ccc3oc(-c4ccccc4)nc3c2)cc1 , thanks.
Marked response: inactive

Exam item: Also need O=S1(=O)OCCOS(=O)(=O)C1Cc1ccccc1 , thanks.
Marked response: inactive

Exam item: Also need Cc1ccc(-n2c(C)n[nH]c2=O)cc1 , thanks.
Marked response: inactive

---

Would you kindly list GI50 for each of these molecules?
- System: DLD-1
- EXPERIMENTAL PROTOCOL: NCI tumour cell line growth inhibition, 48 h
Calls of active or inactive are those of the source. Cut-off read from the data, not from the text of the source: active = GI50 up to about 1.1 µM and inactive = higher.

Exam item: Dear colleague, I am looking for the recorded GI50 of the following molecule: CC(=O)O[C@H]1CC[C@@]2(C)C(=CC[C@@H]3C2CC[C@]2(C)Nc4[nH]ncc4CC32)C1 (stereo partly drawn)
Marked response: 32 µM (inactive)

Exam item: Also need CCCCCCC(O)CC[C@H]1CCC[C@@H](C)N1 (stereo partly drawn) , thanks.
Marked response: > 100 µM (inactive)

Exam item: Also need COC(=O)CCSC(=O)Nc1ccc(/N=N/c2ccccc2)cc1 , thanks.
Marked response: 52.5 µM (inactive)
